Can you tell me CC50 for the items I'm about to list?
Tested on: RXF 393
protocol-summary: Antiproliferative activity against human RXF393 cells after 48 hrs
Type: functional
details: RXF 393, 48 h, read-out: Log LC50 (the source's name) (converted)
State just the number; it will be interpreted in µM.

What measured CC50 is associated with `CCCCCCCCCCCCCCN[C@H](C)[C@@H](O)c1ccccc1.Cl` on RXF 393?
5.5

Moving on to the next molecule: `CCCCCCCCCCCCCCN[C@@H](C)[C@H](O)c1ccccc1`
6.03

Moving on to the next molecule: `CCCCCCCCCCCCCCN[C@H](CO)[C@H](O)c1ccc([N+](=O)[O-])cc1.Cl`
8.32

Moving on to the next molecule: `CCCCCCCCCCCCCCN[C@H](CO)[C@H](O)c1ccccc1`
5.13

Moving on to the next molecule: `C[C@H](NC(=O)CCCCCCCCCCCCCCC[n+]1ccccc1)[C@H](O)c1ccccc1.[Br-]`
74.1

Moving on to the next molecule: `C[C@@H](NC(=O)CCCCCCCCCCCCCCC[n+]1ccccc1)[C@@H](O)c1ccccc1.[Br-]`
97.7

Moving on to the next molecule: `CCCCCCCCCCCCCCN[C@@H](CO)Cc1ccccc1`
6.92

---

Tested on: A498
protocol-summary: Antiproliferative activity against human A498 cells after 48 hrs
Format: functional
details: A498, 48 h, read-out: Log TGI (converted)
Rule: TGI of 30 µM or more gives 1; anything lower gives -1.

Threshold query (TGI >= 30 µM) on `CCCCCCCCCCCCCCN[C@H](C)[C@@H](O)c1ccccc1.Cl`
-1

Moving on to the next molecule: `CCCCCCCCCCCCCCN[C@H](CO)[C@H](O)c1ccc([N+](=O)[O-])cc1.Cl`
-1

Moving on to the next molecule: `CCCCCCCCCCCCCCN[C@@H](C)[C@H](O)c1ccccc1`
-1

Moving on to the next molecule: `C[C@@H](NC(=O)CCCCCCCCCCCCCCC[n+]1ccccc1)[C@@H](O)c1ccccc1.[Br-]`
-1

Moving on to the next molecule: `CCCCCCCCCCCCCCN[C@H](CO)[C@H](O)c1ccccc1`
1

Moving on to the next molecule: `CCCCCCCCCCCCCCN[C@@H](CO)Cc1ccccc1`
-1

Moving on to the next molecule: `C[C@H](NC(=O)CCCCCCCCCCCCCCC[n+]1ccccc1)[C@H](O)c1ccccc1.[Br-]`
1

---

Test system: HCT-116
protocol-summary: Antiproliferative activity against human HCT116 cells after 48 hrs
Assay type: functional
details: HCT-116, 48 h, read-out: Log TGI (converted)
recorded-endpoint: TGI (µM)
State just the number; it will be interpreted in µM.

What measured TGI is associated with `CCCCCCCCCCCCCCN[C@H](C)[C@@H](O)c1ccccc1.Cl` on HCT-116?
3.24

Moving on to the next compound: `C[C@@H](NC(=O)CCCCCCCCCCCCCCC[n+]1ccccc1)[C@@H](O)c1ccccc1.[Br-]`
13.2

Moving on to the next compound: `CCCCCCCCCCCCCCN[C@H](CO)[C@H](O)c1ccc([N+](=O)[O-])cc1.Cl`
3.47

Moving on to the next compound: `CCCCCCCCCCCCCCN[C@H](CO)[C@H](O)c1ccccc1`
3.16

Moving on to the next compound: `CCCCCCCCCCCCCCN[C@@H](C)[C@H](O)c1ccccc1`
3.47

Moving on to the next compound: `CCCCCCCCCCCCCCN[C@@H](CO)Cc1ccccc1`
3.72

Moving on to the next compound: `C[C@H](NC(=O)CCCCCCCCCCCCCCC[n+]1ccccc1)[C@H](O)c1ccccc1.[Br-]`
14.8
